Numbers sourced from PubChem BioAssay.

Target: Voltage-gated potassium channel subunit beta-2 (Rattus norvegicus)
Test: enhancers of rat Kvbeta2 NADPH turnover – biochemical, NADPH fluorescence, primary screen (AID 623);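 note: fluorescence intensity change per second fitted from 20 to 320 s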
Details: Recombinant KvBeta, NADPH fluorescence decrease slope, 10 min; at 10 µM; stronger effect = lower value
The following compounds are listed with their measured NADPH fluorescence slope values.

- COMPOUND: "CC(=O)NC(C)C(=O)OCc1ccc(Cl)cc1Cl (stereo not drawn)"
  NADPH fluorescence slope: "-5.2e-05"
- COMPOUND: "CCCCn1c(CN2CCN(c3cccc(Cl)c3)CC2)nc2c1c(=O)n(C)c(=O)n2C"
  NADPH fluorescence slope: "-6.6e-05"
- COMPOUND: "Oc1cccc(Nc2nc(NCC3CCCO3)c3ccccc3n2)c1 (stereo not drawn)"
  NADPH fluorescence slope: "2.9e-05"
- COMPOUND: "COCC(=O)NC(c1ccccc1)c1ccccc1"
  NADPH fluorescence slope: "-7e-05"
- COMPOUND: "Cc1cc(C(=O)N2CCCc3ccccc32)no1"
  NADPH fluorescence slope: "-4.1e-06"
- COMPOUND: "Cc1ccc(Cn2ncc3c(NCCCN4CCOCC4)ncnc32)cc1"
  NADPH fluorescence slope: "-1.3e-05"
- COMPOUND: "Cc1cc(C)c(C)c(S(=O)(=O)Nc2ccc(O)cc2)c1C"
  NADPH fluorescence slope: "-1.7e-05"
- COMPOUND: "Cc1ccc(C)c(OCC(O)CN2C(C)CCCC2C)c1 (stereo not drawn)"
  NADPH fluorescence slope: "5e-05"
- COMPOUND: "CCCCOc1ccc(C(=O)Nc2ccc(N3CCN(C(=O)C(C)C)CC3)cc2)cc1"
  NADPH fluorescence slope: "-1.7e-05"
- COMPOUND: "CC1(C)NC(=O)N(CNc2cc(Cl)ccc2Cl)C1=O"
  NADPH fluorescence slope: -0.000384
- COMPOUND: "O=C(NCCN1CCOCC1)c1ccc(CS(=O)(=O)Cc2ccccc2F)o1"
  NADPH fluorescence slope: "-5.9e-05"
- COMPOUND: "O=C(Nc1ccc(F)cc1)N(Cc1ccco1)Cc1cc2cc3c(cc2[nH]c1=O)OCO3"
  NADPH fluorescence slope: "-2e-05"
- COMPOUND: "CCCn1c(SCC(=O)NCCc2ccccc2)nnc1-c1ccccn1"
  NADPH fluorescence slope: "-4.4e-05"
- COMPOUND: "Cc1ccc2cc(C#N)c(N3CCCC3)nc2c1C"
  NADPH fluorescence slope: "-2.2e-05"
- COMPOUND: "Cc1sc2nc(SCc3nc4ccccc4[nH]3)n(Cc3ccco3)c(=O)c2c1C"
  NADPH fluorescence slope: "-2e-05"
- COMPOUND: "CCN(CCCNC(=O)C1CCCN(S(=O)(=O)c2cnc[nH]2)C1)c1ccccc1 (stereo not drawn)"
  NADPH fluorescence slope: "-2.4e-05"
- COMPOUND: "CC(=O)c1c(O)cc(C)n(Nc2nc(C)cc(C)n2)c1=O"
  NADPH fluorescence slope: "-5.3e-05"
- COMPOUND: "CC(=O)N1CCN(S(=O)(=O)c2ccc(S(=O)(=O)NC3CC3)cc2)CC1"
  NADPH fluorescence slope: "-2.2e-05"
- COMPOUND: "CC(C)Cc1n[nH]c(=O)[nH]1"
  NADPH fluorescence slope: "-3.9e-05"
- COMPOUND: "CCN1CCN(CCCNC(=O)c2cc3sccc3n2CC)CC1"
  NADPH fluorescence slope: "-3.5e-05"
- COMPOUND: "COc1ccc(C(=O)N2CCOCC2)cc1Br"
  NADPH fluorescence slope: "3.2e-05"
- COMPOUND: "CCOC(=O)N1CCN(C(=O)c2ccc3c(=O)n(CCc4ccccc4)c(=O)[nH]c3c2)CC1"
  NADPH fluorescence slope: "4.7e-06"
- COMPOUND: "CCCCOC(=O)c1cccc(NC(=O)CC)c1"
  NADPH fluorescence slope: "4e-05"
- COMPOUND: "COCCNC(=O)NC(=O)COC(=O)Cc1ccc2c(c1)OCCO2"
  NADPH fluorescence slope: "-6.4e-05"
- COMPOUND: "CC(C)Cn1c2c(c(O)c(C(=O)Nc3ncccc3O)c1=O)CCCC2"
  NADPH fluorescence slope: "-6.5e-05"
- COMPOUND: "N#CC1=C(N)SC(N)=C(C#N)C1CCc1ccccc1"
  NADPH fluorescence slope: "-2e-06"
- COMPOUND: "CCN(CC)S(=O)(=O)c1ccc(NC(=O)c2cccc3c2C(=O)N(CCOC)C3)cc1"
  NADPH fluorescence slope: "-2.6e-05"
- COMPOUND: "Cc1nnc(NC(=O)CCC(=O)N2CCC(C)CC2)s1"
  NADPH fluorescence slope: "-4.6e-05"

----------
Assay: endothelial E-selectin expression blockers – imaging, HUVEC, immunofluorescence, MLSMR starter and 10KST1 sets, primary screen (AID 487);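 note: 100% = median nuclei count of all wells on the same plate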
Conditions: HUVEC TNFalpha-induced E-selectin immunofluorescence imaging, at 2 µM; measured here: cell number, toxicity

- COMPOUND: "NC(=O)c1c(NC(=O)Cc2cccs2)sc2c1CCC2"
  MEASUREMENT_UNITS: "%"
  nuclei count: 150
- COMPOUND: "COc1ccc(NC(=O)CC2Oc3ccccc3NC2=O)cc1 (centres undefined)"
  MEASUREMENT_UNITS: "%"
  nuclei count: 122
- COMPOUND: "COc1ccc(C(=O)Nc2ccc(Cl)c(Cl)c2)c(OC)n1"
  MEASUREMENT_UNITS: "%"
  nuclei count: 137
- COMPOUND: "c1ccc(Cn2nnnc2CN2CCCC2)cc1"
  MEASUREMENT_UNITS: "%"
  nuclei count: 94

----------
Assay: inhibitors of TNFa-induced NFkB p65 translocation, primary screen, imaging, HUVEC, MLSMR starter and 10KST1 sets (AID 438);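 note: compound added about 3h40 before a 20 min TNFalpha stimulation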
Conditions: HUVEC TNFa-induced p65 nuclear translocation; measured here: nuclei count (cytotoxicity indicator), at 2.08 µM

- MOLECULE: "Cc1c(C(=O)Nc2nnc(C(F)(F)F)s2)oc2ccccc12"
  cell count: 778
- MOLECULE: "Cn1c(=N)c(S(=O)(=O)c2ccccc2)cc2c(=O)n3ccccc3nc21"
  cell count: 442
- MOLECULE: "CCn1nccc1C(=O)Nc1nccs1"
  cell count: 392
- MOLECULE: "O=C(OCC(=O)N1CCCC1)c1cncc(Br)c1"
  cell count: 682
- MOLECULE: "CC(=O)c1ccc2c3c(cccc13)C(=O)N(c1c(C)nn(C)c1C)C2=O"
  cell count: 655
- MOLECULE: "CC1=C(C(=O)N2CCOCC2)C(c2ccccc2F)C2=C(CCCC2=O)N1 (stereo not given)"
  cell count: 401
- MOLECULE: "O=C(c1ccc(S(=O)(=O)N2CCOCC2)cc1)N1CCc2ccccc2C1"
  cell count: 401
- MOLECULE: "CSc1nnc(-c2ccccc2)n1C"
  cell count: 645
- MOLECULE: "COc1ccc(S(=O)(=O)Nc2ccccc2SC)cc1C"
  cell count: 664
- MOLECULE: "Cc1cc(NC(=O)C(C)(C)C)no1"
  cell count: 507

----------
The following molecules are listed with their measured inhibition values.
Test: blockers of RIG-like receptor reporter activation – cell-based, Sendai virus stimulus, luciferase, 10K MLSCN set, TLR/RLR signaling modifier project, primary screen (AID 602276);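 note: firefly luciferase from ISG56 promoter only with Renilla not read in this screen; 0% = Sendai virus plus DMSO and 100% = medium plus DMSO without virus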
Conditions: HEK293 RL24 IRF3 luciferase reporter, at 10 µM, stronger effect = higher value

- MOLECULE: "CCOC(=O)Nc1ccc2c(c1)N(C(=O)CCN1CCOCC1)c1ccccc1S2"
  MEASUREMENT_UNITS: "%"
  inhibition: 6.28
- MOLECULE: "COc1ccccc1-c1cc2nc(C)c(CCC(=O)NCc3ccco3)c(C)n2n1"
  MEASUREMENT_UNITS: "%"
  inhibition: 18.9
- MOLECULE: "CCC(=O)N(Cc1ccco1)c1nc(-c2cc(OC)ccc2OC)cs1"
  MEASUREMENT_UNITS: "%"
  inhibition: 8.75
- MOLECULE: "O=C(CNS(=O)(=O)c1ccccc1)NCc1ccccn1"
  MEASUREMENT_UNITS: "%"
  inhibition: 20.5
- MOLECULE: "O=C(CN1C(=O)COc2ccccc21)NCCN1CCc2ccccc2C1"
  MEASUREMENT_UNITS: "%"
  inhibition: 12.1
- MOLECULE: "CC(=O)NC(C)C(=O)OCc1ccc(Cl)cc1Cl (configuration not stated)"
  MEASUREMENT_UNITS: "%"
  inhibition: 10.8
- MOLECULE: "Cc1sc2nc(SCC(=O)N3CCN(CCO)CC3)n(-c3ccccc3)c(=O)c2c1C"
  MEASUREMENT_UNITS: "%"
  inhibition: 16.8
